system-tested: human EGFR exon 20 insertion NPG (H773_V774insNPG) (Homo sapiens, UniProt P00533, INS773NPG, cells depend on it)
Sequence (P00533 with tags, fused parts or gaps INS773NPG limits assumed): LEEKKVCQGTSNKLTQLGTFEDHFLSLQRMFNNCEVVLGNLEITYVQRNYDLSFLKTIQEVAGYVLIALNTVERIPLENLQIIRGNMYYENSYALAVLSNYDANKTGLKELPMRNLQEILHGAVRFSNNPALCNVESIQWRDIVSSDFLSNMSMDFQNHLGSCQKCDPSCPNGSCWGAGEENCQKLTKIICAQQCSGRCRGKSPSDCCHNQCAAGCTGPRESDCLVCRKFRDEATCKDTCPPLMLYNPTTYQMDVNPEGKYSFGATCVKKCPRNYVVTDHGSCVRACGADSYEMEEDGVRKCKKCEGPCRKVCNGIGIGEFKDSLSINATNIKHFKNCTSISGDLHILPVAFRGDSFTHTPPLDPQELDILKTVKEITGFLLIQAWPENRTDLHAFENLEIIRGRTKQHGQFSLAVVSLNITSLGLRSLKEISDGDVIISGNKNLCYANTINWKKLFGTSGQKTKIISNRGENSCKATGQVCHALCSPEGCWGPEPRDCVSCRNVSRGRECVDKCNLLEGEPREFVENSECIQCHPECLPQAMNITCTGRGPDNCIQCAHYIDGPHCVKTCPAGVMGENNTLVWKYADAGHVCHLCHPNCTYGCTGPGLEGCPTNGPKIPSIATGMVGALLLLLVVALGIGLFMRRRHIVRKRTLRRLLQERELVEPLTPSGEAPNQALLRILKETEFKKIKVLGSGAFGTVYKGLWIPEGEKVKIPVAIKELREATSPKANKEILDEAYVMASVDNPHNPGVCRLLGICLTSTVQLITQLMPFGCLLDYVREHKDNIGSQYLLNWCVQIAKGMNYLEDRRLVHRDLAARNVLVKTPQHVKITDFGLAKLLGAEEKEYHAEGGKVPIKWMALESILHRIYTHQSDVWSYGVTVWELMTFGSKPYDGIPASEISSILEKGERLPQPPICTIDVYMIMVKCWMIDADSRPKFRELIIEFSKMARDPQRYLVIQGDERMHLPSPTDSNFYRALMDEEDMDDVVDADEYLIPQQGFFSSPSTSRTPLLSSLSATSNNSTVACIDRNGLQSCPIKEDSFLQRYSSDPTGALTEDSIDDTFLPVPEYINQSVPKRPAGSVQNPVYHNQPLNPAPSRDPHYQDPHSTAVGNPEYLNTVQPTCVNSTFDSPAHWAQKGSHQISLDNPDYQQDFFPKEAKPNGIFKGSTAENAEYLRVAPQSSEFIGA
procedure-summary: Ba/F3-EGFR-Exon20-NPG cell anti-proliferative assay (CellTiter 96 MTS, 72 h)
Assay type: cell-based
measurement-conditions: read-out: EGFR exon 20 NPG insertion IC50
pIC50: −log10 of the molar value.

{"compound": "C=CC(=O)Nc1cc(Nc2ncc(C(=O)OC(C)CC)c(-c3cn(C)c4ccccc34)n2)c(OC)cc1N(C)CCN(C)C (stereo not shown)", "pIC50": "> 7.00"}
{"compound": "C=CC(=O)Nc1cc(Nc2ncc(N(C)C(=O)C(C)C)c(-c3cn(C)c4ccccc34)n2)c(OC)cc1N(C)CCN(C)C", "pIC50": "6.30 to 7.00"}
{"compound": "C=CC(=O)Nc1cc(Nc2ncc(Cl)c(-c3cnn4ccccc34)n2)c(OC)cc1OC(COC)CN(CC)CC (stereo not shown)", "pIC50": "6.30 to 7.00"}
{"compound": "C=CC(=O)Nc1cc(Nc2ncc(C(=O)OC3CCC3)c(-c3cn(C)c4ccccc34)n2)c(OC)cc1N(C)CCN(C)C", "pIC50": "> 7.00"}
{"compound": "C=CC(=O)Nc1cc(Nc2ncc(Cl)c(-c3cnn4ccccc34)n2)c(OC)cc1N(C)CCN1CCN(C)CC1", "pIC50": "6.00 to 6.30"}
{"compound": "C=CC(=O)Nc1ccc(OC)c(Nc2ncc(Cl)c(-c3c[nH]c4cc(OCCN5CCCC5)ccc34)n2)c1", "pIC50": "> 7.00"}
{"compound": "C=CC(=O)Nc1cc(Nc2ncc(C(=O)OC(C)C)c(-c3cn(C)c4ccccc34)n2)c(OC)cc1N(C)C[C@@H]1CCCN1C", "pIC50": "> 7.00"}
{"compound": "C=CC(=O)Nc1cc(Nc2ncc(C(=O)OC3COC3)c(-c3cn(C)c4ccccc34)n2)c(OC)cc1N(C)CCN(C)C", "pIC50": "> 7.00"}
{"compound": "C=CC(=O)Nc1cc(Nc2ncc(C(=O)OC(C)C)c(-c3cn(C)c4c(OC)cccc34)n2)c(OC)cc1N(C)CCN(C)C", "pIC50": "> 7.00"}
{"compound": "C=CC(=O)Nc1cc(Nc2ncc(C(=O)OC(C)C)c(-c3cn(C)c4ccccc34)n2)c(OC)cc1N(C)CCN(C)C", "pIC50": "> 7.00"}
{"compound": "C=CC(=O)Nc1cc(Nc2nccc(-c3cn(C)c4cccc(C(=O)OC)c34)n2)c(OC)cc1N(C)CCN(C)C", "pIC50": "< 6.00"}
{"compound": "C=CC(=O)Nc1cc(Nc2ncc(C(=O)OCC)c(-c3cn(C)c4ccccc34)n2)c(OC)cc1N(C)CCN(C)C", "pIC50": "> 7.00"}
{"compound": "C=CC(=O)Nc1cc(Nc2ncc(NC(=O)C(C)(C)C)c(-c3cn(C)c4ccccc34)n2)c(OC)cc1OC", "pIC50": "< 6.00"}
{"compound": "C=CC(=O)Nc1cc(Nc2ncc(C(=O)OC(C)C)c(-n3ccc4ccccc43)n2)c(OC)cc1N(C)CCN(C)C", "pIC50": "> 7.00"}
{"compound": "C=CC(=O)Nc1cc(Nc2ncc(C(=O)OC)c(-c3cn(C)c4ccccc34)n2)c(OC)cc1N(C)CCN(C)C", "pIC50": "> 7.00"}
{"compound": "C=CC(=O)Nc1cc(Nc2ncc(Cl)c(-c3cnn4ccccc34)n2)c(OC)cc1N1CCC(N(C)C)C1 (stereo not shown)", "pIC50": "6.30 to 7.00"}
{"compound": "C=CC(=O)Nc1cc(Nc2nccc(-c3cn(C)c4ccccc34)n2)c(OC)cc1N(C)CCNC", "pIC50": "> 7.00"}
{"compound": "C=CC(=O)Nc1cc(Nc2ncc(C(=O)OC(C)C)c(-c3cn(C)c4ccccc34)n2)c(OC)cc1N(C)C[C@@H]1CCCN1", "pIC50": "> 7.00"}
{"compound": "C=CC(=O)Nc1cc(Nc2ncc(C(=O)OCC#N)c(-c3cn(C)c4ccccc34)n2)c(OC)cc1N(C)CCN(C)C", "pIC50": "> 7.00"}
{"compound": "C=CC(=O)Nc1cc(Nc2ncc(C(=O)OC)c(-n3ccc4ccccc43)n2)c(OC)cc1N(C)C[C@H]1CCCN1C", "pIC50": "> 7.00"}
{"compound": "C=CC(=O)Nc1cc(Nc2ncc(C(=O)OC(C)C)c(-c3cn(C4CC4)c4ccccc34)n2)c(OC)cc1N(C)CCN(C)C", "pIC50": "> 7.00"}
{"compound": "C=CC(=O)Nc1cc(Nc2ncnc(-c3c(-c4ccccc4)n(C)c4ccccc34)n2)c(OC)cc1N(C)CCN(C)C", "pIC50": "> 7.00"}
{"compound": "C=CC(=O)Nc1ccc(OC)c(Nc2ncc(C#N)c(-c3cn(C)c4cc(OCCC5CCCN5C)ccc34)n2)c1 (stereo not shown)", "pIC50": "> 7.00"}
{"compound": "C=CC(=O)Nc1cc(Nc2ncc(C(=O)OC)c(-c3cn(C)c4ccccc34)n2)c(OC)cc1N(C)CC1CCCN1C (stereo not shown)", "pIC50": "> 7.00"}
{"compound": "C=CC(=O)Nc1cc(Nc2nccc(-c3c(-c4ccc(OCc5ccccn5)c(Cl)c4)n(C)c4ccccc34)n2)c(OC)cc1N(C)CCN(C)C", "pIC50": "6.30 to 7.00"}
{"compound": "C=CC(=O)Nc1ccc(OC)c(Nc2ncc(C#N)c(-c3cn(C)c4cc(OCCN5CCCC5)ccc34)n2)c1", "pIC50": "> 7.00"}
{"compound": "C=CC(=O)Nc1cc(Nc2ncc(C(=O)OC(C)C)c(-c3c[nH]c4ccccc34)n2)c(OC)cc1N(C)C[C@H]1CCCN1C", "pIC50": "> 7.00"}
{"compound": "C=CC(=O)Nc1cc(Nc2ncc(Cl)c(-c3c[nH]c4ccccc34)n2)c(OC)cc1N(C)CCN(C)C", "pIC50": "> 7.00"}
